Entry source: ChEMBL document CHEMBL5257104

biological target: Serine/threonine-protein kinase PLK1 (Homo sapiens, UniProt P53350)
Sequence (P53350 whole entry): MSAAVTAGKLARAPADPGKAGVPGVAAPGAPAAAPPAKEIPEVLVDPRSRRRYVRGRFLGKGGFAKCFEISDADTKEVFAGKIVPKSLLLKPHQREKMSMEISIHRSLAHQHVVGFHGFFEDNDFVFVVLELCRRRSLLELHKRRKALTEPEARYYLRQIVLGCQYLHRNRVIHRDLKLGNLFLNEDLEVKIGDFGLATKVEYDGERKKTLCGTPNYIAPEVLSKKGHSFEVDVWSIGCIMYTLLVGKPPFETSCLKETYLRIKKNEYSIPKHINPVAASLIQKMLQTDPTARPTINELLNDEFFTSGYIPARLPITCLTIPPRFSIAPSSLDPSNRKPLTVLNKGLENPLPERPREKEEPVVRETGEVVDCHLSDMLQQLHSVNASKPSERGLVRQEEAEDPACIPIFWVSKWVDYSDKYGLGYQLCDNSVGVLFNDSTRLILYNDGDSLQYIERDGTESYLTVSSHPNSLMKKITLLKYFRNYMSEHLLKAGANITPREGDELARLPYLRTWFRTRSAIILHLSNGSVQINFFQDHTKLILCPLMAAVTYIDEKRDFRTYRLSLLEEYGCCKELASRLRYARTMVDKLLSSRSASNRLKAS
PARAMETER MEASURED: IC50
Please state the number and follow it with the unit.

Exam item: Endpoint output: IC50 of CS(=O)(=O)N1CCC2(CC1)N=C(c1ccc(Br)cc1)C(=O)N2 . Value?
Marked response: 20.4 µM

---

tested on: A549; test: Cytotoxicity against human A549 cells assessed as inhibition of cell growth by MTT assay; type: functional, cell-based
PARAMETER MEASURED: pIC50
One number for each entry, as −log10 of the molar value.

Exam item: Endpoint output: pIC50 of CS(=O)(=O)N1CCC2(CC1)N=C(c1ccc(Br)cc1)C(=O)N2 . Value?
Marked response: 4.64
